Data provenance is ChEMBL document CHEMBL2062377.

Test System: Diacylglycerol O-acyltransferase 1 (Mus musculus, UniProt Q9Z2A7)
Sequence (Q9Z2A7 whole entry): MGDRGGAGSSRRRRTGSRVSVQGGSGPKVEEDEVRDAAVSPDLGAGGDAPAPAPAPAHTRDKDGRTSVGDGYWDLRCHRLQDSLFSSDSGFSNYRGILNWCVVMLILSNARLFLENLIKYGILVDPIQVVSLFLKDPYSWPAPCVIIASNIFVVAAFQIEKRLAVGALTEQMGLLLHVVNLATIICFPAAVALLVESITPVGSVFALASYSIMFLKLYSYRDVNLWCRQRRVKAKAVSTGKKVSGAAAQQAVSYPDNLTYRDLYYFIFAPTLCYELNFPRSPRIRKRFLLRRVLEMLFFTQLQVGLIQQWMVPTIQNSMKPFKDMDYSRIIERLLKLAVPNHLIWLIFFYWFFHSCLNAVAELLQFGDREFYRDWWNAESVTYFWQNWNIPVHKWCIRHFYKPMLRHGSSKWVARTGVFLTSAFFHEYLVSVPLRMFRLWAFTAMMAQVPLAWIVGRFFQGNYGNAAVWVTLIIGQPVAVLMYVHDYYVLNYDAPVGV
Assay Comment: Inhibition of DGAT1 in mouse C2C12 cells assessed as reduction in triglyceride synthesis after 2 hrs by LC/MS analysis
Measured Parameter: pIC50
FYI, pIC50 means -log10 of a concentration in mol per litre.

Take a look at these entries with their results.
>  <Smiles Representation>
Cc1ccc(NC(=O)c2ccc3nc(-c4c(C)cc(CCC(=O)O)cc4C)[nH]c3c2)cc1C

>  <Val>
5.19

$$$$
>  <Smiles Representation>
COc1cc(C)c(-c2nc3ccc(C(=O)Nc4ccc(C)c(C)c4)cc3[nH]2)c(C)c1

>  <Val>
6.92

$$$$
>  <Smiles Representation>
Cc1ccc(NC(=O)c2ccc3nc(-c4c(C)cc(NCC(=O)O)cc4C)[nH]c3c2)cc1C

>  <Val>
5.70

$$$$

Now examine the next entry.
Problem: Give pIC50 for "Cc1cc(CCC(=O)O)cc(C)c1-c1nc2ccc(C(=O)Nc3ccc(C(C)(C)C)cc3)cc2[nH]1"
Result: 6.41
